Quick reference for EC50 among some compounds
# tested_target: 229E Mpro (Human coronavirus 229E (HCoV-229E), UniProt P0C6X1)
# Sequence (P0C6X1 2966-3267 limits assumed): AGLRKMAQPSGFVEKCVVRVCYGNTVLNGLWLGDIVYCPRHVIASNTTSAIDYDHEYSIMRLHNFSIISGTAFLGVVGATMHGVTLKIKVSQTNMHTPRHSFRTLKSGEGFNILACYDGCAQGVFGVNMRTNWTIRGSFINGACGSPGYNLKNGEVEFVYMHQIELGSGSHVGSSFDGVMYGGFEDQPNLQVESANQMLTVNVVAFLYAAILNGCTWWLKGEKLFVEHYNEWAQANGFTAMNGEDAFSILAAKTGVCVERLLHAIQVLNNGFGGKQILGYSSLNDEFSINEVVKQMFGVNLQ
# assay_details: 229E Mpro activity
# Format: biochemical
# experimental_conditions: read-out: 229E Mpro EC50

N#C[C@H](C[C@@H]1CCCNC1=O)NC(=O)C1CC2(CCCCC2)CN1C(=O)c1cc2c(Cl)cccc2[nH]1 (single isomer, unassigned) [801 (Isomer 1)] = < 2000 nM
N#C[C@H](C[C@@H]1CCCNC1=O)NC(=O)[C@H](CC1CC1)NC(=O)c1cc2ccc(F)c(Cl)c2[nH]1 = < 2000 nM

Let us examine a further case.
GET /values?readout=EC50&item= `COc1cccc2[nH]c(C(=O)N3C[C@H](SC)C[C@H]3C(=O)N[C@H](C#N)C[C@@H]3CCNC3=O)cc12`
< 2000 nM
